Target: WEE1 (Homo sapiens, UniProt P30291+Q96SW2)
Construct: C-terminal ePL-tagged (DiscoverX, Fremont, CA) full-length WEE1 expression construct; expressed in transfected cells; host or cells: LentiX-HEK293T (Invitrogen), lentiviral transduction; co-expressing GSPT1-GN (G576N, lacking the first 158 amino acids)
Assay: WEE1-ePL degradation assay (LentiX-WEE1-ePL-GSPT1-ND cells, InCELL Hunter luminescence, 4 h)
Format: cell-based
Details: 293T-LentiX WEE1-ePL cells, lower limit of the fit (0 = luciferase inhibitor, Ymax = DMSO control)
Each entry below carries its recorded 293T-LentiX WEE1-ePL Degradation 4 hr (Ymin).
Reply with just the number.

Here's what some known entries look like.
molecule | observed.result
O=C1CCC(N2Cc3cc(O[C@H]4CCN(Cc5ccc6nc(C7CCOCC7)ccc6c5)C4)ccc3C2=O)C(=O)N1 (stereo partly drawn) | 32.6
O=C1CCC(N2Cc3ccc(O[C@H]4CCN(Cc5ccc6ncccc6c5)C4)cc3C2=O)C(=O)N1 (stereo partly drawn) | 88.79

Now for the molecule whose 293T-LentiX WEE1-ePL Degradation 4 hr (Ymin) we want.
Value of measured 293T-LentiX WEE1-ePL Degradation 4 hr (Ymin) for the entry CO[C@H]1CCN(c2ccc3cc(CN4CC[C@H](Oc5ccc6c(c5)CN(C5CCC(=O)NC5=O)C6=O)C4)ccc3n2)C1 (stereo partly drawn) : 34

---

Biological target: WEE1 (Homo sapiens, UniProt P30291+Q96SW2)
Construct: C-terminal ePL-tagged (DiscoverX, Fremont, CA) full-length WEE1 expression construct; expressed in transfected cells; host or cells: LentiX-HEK293T (Invitrogen), lentiviral transduction; co-expressing GSPT1-GN (G576N, lacking the first 158 amino acids)
Test: WEE1-ePL degradation assay (LentiX-WEE1-ePL-GSPT1-ND cells, InCELL Hunter luminescence, 4 h)
Format: cell-based
Conditions: 293T-LentiX WEE1-ePL cells, read-out: 293T-LentiX WEE1-ePL Degradation 4 hr (EC50)
assay.readout: DC50 (nM)
Unit nM implied. Number only.

Value of measured DC50 for the entry O=C1CCC(N2Cc3cc(O[C@H]4CCN(Cc5ccc6nc(N7CC[C@H](O)C7)ccc6c5)C4)ccc3C2=O)C(=O)N1 (stereo partly shown) : 10.4

Value of measured DC50 for the entry O=C1CCC(N2Cc3cc(O[C@H]4CCN(Cc5ccc6nc(N7CC[C@@]78CCOC8)ccc6c5)C4)ccc3C2=O)C(=O)N1 (stereo partly shown) : 6.07

Value of measured DC50 for the entry CNC1(c2ccc3cc(CN4CC[C@H](Oc5ccc6c(c5)CN(C5CCC(=O)NC5=O)C6=O)C4)ncc3c2)COC1 (stereo partly shown) : 96.7

Value of measured DC50 for the entry CC1(C)CN(c2ncc3cc(CN4CC[C@H](Oc5ccc6c(c5)CN(C5CCC(=O)NC5=O)C6=O)C4)ccc3n2)CCO1 (stereo partly shown) : 11.6

Value of measured DC50 for the entry CC(C)(O)c1ccc2cc(CN3CC[C@H](Oc4ccc5c(c4)CN([C@H]4CCC(=O)NC4=O)C5=O)C3)ccc2n1 : 1.69

Value of measured DC50 for the entry Cc1ccc2cc(CN3CC[C@H](Oc4ccc5c(c4)CN(C4CCC(=O)NC4=O)C5=O)[C@H]3C)ccc2n1 (stereo partly shown) : 16.7

Value of measured DC50 for the entry O=C1CC[C@H](N2Cc3cc(O[C@H]4CCN(Cc5cc6cnc(N7CCOCC7)nc6cc5F)C4)ccc3C2=O)C(=O)N1 : 14.7

Value of measured DC50 for the entry Cc1ccc2cc(CN3CC[C@H](Oc4ccc5c(c4)CN(C4CCC(=O)NC4=O)C5=O)C3)cc(C)c2n1 (stereo partly shown) : 6.44

Value of measured DC50 for the entry CN(C)C(=O)c1ccc2cc(CN3CC[C@H](Oc4ccc5c(c4)CN(C4CCC(=O)NC4=O)C5=O)C3)ccc2n1 (stereo partly shown) : 9.05

Value of measured DC50 for the entry O=C1CCC(N2Cc3cc(O[C@H]4CCN(Cc5ccc6ncncc6c5)C4)ccc3C2=O)C(=O)N1 (stereo partly shown) : 57

Value of measured DC50 for the entry Cc1ccnc(CN2CC[C@H](Oc3ccc4c(c3)CN(C3CCC(=O)NC3=O)C4=O)C2)c1 (stereo partly shown) : 65.4

Value of measured DC50 for the entry O=C1CCC(N2Cc3cc(O[C@H]4CCN(Cc5ccc6nc(N7CCC78COC8)ccc6c5)C4)ccc3C2=O)C(=O)N1 (stereo partly shown) : 6.17

Value of measured DC50 for the entry O=C1CCC(N2Cc3cc(O[C@H]4CCN(Cc5cnc6ncccc6c5)C4)ccc3C2=O)C(=O)N1 (stereo partly shown) : 70.6
